Test Protocol: qHTS assay to identify small molecule antagonists of the androgen receptor (AR) signaling pathway - cell viability counter screen (AID 743033; also: nearly all actives have a fitted effect of over 45% in size)
Run Conditions: AR-bla HEK293 viability, CellTiter-Glo luminescence, 16 h; series mostly up to 58.5 µM
Inconclusive results are not listed. Active and inactive are the calls of the source. Calls follow the shape of the dose curve; as a rule, active = well fitted cell-killing curve with a large enough effect in the repeat runs; inconclusive = weak or mixed curves; inactive = no such curve, though single readings can be large or run the other way.
Respond using exactly one of the listed classes: true (1) (active), false (0) (inactive)

Previously resolved entries follow.
[[record]]
compound = "CC(C)(C)C1=CC(=O)C=C(C(C)(C)C)C1=O"
category_label = "false (0)"

[[record]]
compound = "COc1cc(C(=O)NS(=O)(=O)c2ccccc2C)ccc1Cc1cn(C)c2ccc(NC(=O)OC3CCCC3)cc12"
category_label = "false (0)"

[[record]]
compound = "Clc1ccc(C(c2ccccc2Cl)C(Cl)Cl)cc1 (stereo not drawn)"
category_label = "false (0)"

[[record]]
compound = "O=C1C=CC(=O)N1c1ccccc1"
category_label = "true (1)"


What is the recorded call for this compound in the test? Brc1ccccc1-c1ccccc1 false (0)

What is the recorded call for this compound in the test? [O]=[Zr] false (0)

What is the recorded call for this compound in the test? CCCCCCCC/C=C\CCCCCCCC(=O)NCc1ccc(O)c(OC)c1 false (0)

What is the recorded call for this compound in the test? CCCC(CC)CCCCCCCN (stereo not drawn) false (0)

What is the recorded call for this compound in the test? Clc1ccccc1CN1CCc2sccc2C1 false (0)

What is the recorded call for this compound in the test? CNC(=O)c1cc(Oc2ccc(NC(=O)Nc3ccc(Cl)c(C(F)(F)F)c3)cc2)ccn1 true (1)
